The measurements presented in this section are drawn from paper PMC8122397.

# Test system: Plasmodium falciparum 3D7 (chloroquine-sensitive strain)
# assay.details: In vitro anti-plasmodial image-based asexual assay, 3D7 strain
# Format: cell-based
# test.context: 3D7 strain, 72 h; read-out: Pf 3D7 IC50 ± SD
observable: pIC50
Scale explanation: pIC50 corresponds to minus log10 of a concentration expressed in moles per litre.

See these solved cases before continuing.
Cc1ncc(Cl)n2c(-c3ccc(OC(F)F)cc3)nnc12; 4.90
FC(F)Oc1ccc(-c2nnc3cncc(OCC(F)(F)F)n23)cc1; 4.78
CC(F)(F)c1ncc(Cl)n2c(-c3ccc(Cl)cc3)nnc12; 5.76

Turning now to a further record.
Report pIC50, nothing else, for this molecule: "FC(F)Oc1ccc(-c2nnc3cncc(OCCc4ccccc4)n23)cc1" 6.51
